Substrate: T1, SSB (UniProt P05455)
T1 sequence (looked up): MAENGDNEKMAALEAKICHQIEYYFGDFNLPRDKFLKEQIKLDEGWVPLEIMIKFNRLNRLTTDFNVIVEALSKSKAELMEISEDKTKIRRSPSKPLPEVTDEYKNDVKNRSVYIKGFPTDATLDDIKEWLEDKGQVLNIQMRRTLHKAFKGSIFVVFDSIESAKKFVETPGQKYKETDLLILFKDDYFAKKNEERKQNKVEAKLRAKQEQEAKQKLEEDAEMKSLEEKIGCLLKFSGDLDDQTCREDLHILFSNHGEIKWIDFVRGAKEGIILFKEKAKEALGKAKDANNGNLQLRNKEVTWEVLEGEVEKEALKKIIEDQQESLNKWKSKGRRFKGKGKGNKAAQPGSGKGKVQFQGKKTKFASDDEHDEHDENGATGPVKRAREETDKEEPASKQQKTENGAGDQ
measurement-protocol: AtheNA, Ab 6.25 ug/ml
measure-name: Athena reading (relative luminescence units)
The reply should be a number, written without any unit.

Exercise: For CH235_4A (antibody, from a related filing, V domains shown) VH: QVQLVQSGAEVKKPGASVTVSCQASGYTFTNYYVHWVRQAPGQGLQLMGWIDPSWGRTNYAQNFQGRITMTRDTSTSTVYMEMRSLRSEDTAVYYCARNVATEGSLLHYDYWGQGTLVTVSA VL: EIVLTQSPATLSVSPGERATLSCRASQSVRSNLAWYQQRPGQAPRLLIYGTSTRATGVPARFSGRGSGTEFTLAISSMQSEDFAVYLCLQYNNWWTFGQGTKVEIK , write its Athena reading (relative luminescence units).
Solution: 6
